Provide the recorded Activity for the entries that follow.
STUDY SYSTEM: Serine/threonine-protein kinase Nek1 (Homo sapiens)
ASSAY COMMENT: Inhibition of human recombinant NEK1 (1 to 505 residues) assessed as residual activity at 1 uM using RLGRDKYKTLRQIRQ as substrate incubated for 40 mins in presence of [gamma-33P]-ATP by radiometric scintillation counting assay relative to control
Report the value in % with no unit label.

Asked: Report Activity for CC(C)(C)OC(=O)NCCNS(=O)(=O)c1ccc(-c2ccnc3[nH]ccc23)cc1 please.
Given back: 49

Asked: Fill in: Activity of CC(C)(O)CNS(=O)(=O)c1ccc(-c2ccnc3[nH]ccc23)cc1 is ___
Given back: 32

Asked: Fill blank: measured Activity of the compound CN(CCO)S(=O)(=O)c1ccc(-c2ccnc3[nH]ccc23)cc1 is ____.
Given back: 46

Asked: Entry under review: O=C(NCCO)c1ccc(-c2ccnc3[nH]ccc23)cc1 . Reported Activity?
Given back: 89

Asked: Recorded Activity of O=S(=O)(N[C@@H](CO)Cc1ccc(O)cc1)c1ccc(-c2ccnc3[nH]ccc23)cc1 , please.
Given back: 25
